Assign SPR response to each entry below.
- STUDY SYSTEM: AFP158 homologous peptides/HLA-A*02:01 complexes
- ASSAY INFO: SPR, crude scFv captured, complexes as analyte

[ask] SPR response lookup needed for AS170036 VL1VH1-VHG56Y (scFv) scFv: QSALTQPRSVSGSPGQSVTISCAGTSSDVGSENYVSWYQQHPGKAPKLMIYQVNKRASGVPDRFSGSKSGNTASLTISGLQAEDEADYYCASYRSSDHNIVFGGGTKLTVLGGGGSGGGGSGGGGSEVQLVESGGGLVQPGGSLRLSCAASGFTFSSYAMSWVRQAPGKGLEWVSTINSGTYSPYYADSVKGRFTISRDNSKNTLYLQMNSLRAEDTAVYYCAKNFFDGSWFLGPPAMDYWGQGTLVTVSSHHHHHH , thanks.
[reply] < 3.5 RU

[ask] SPR response lookup needed for AS170036 VL1VH1-VHS57M (scFv) scFv: QSALTQPRSVSGSPGQSVTISCAGTSSDVGSENYVSWYQQHPGKAPKLMIYQVNKRASGVPDRFSGSKSGNTASLTISGLQAEDEADYYCASYRSSDHNIVFGGGTKLTVLGGGGSGGGGSGGGGSEVQLVESGGGLVQPGGSLRLSCAASGFTFSSYAMSWVRQAPGKGLEWVSTINSGTGMPYYADSVKGRFTISRDNSKNTLYLQMNSLRAEDTAVYYCAKNFFDGSWFLGPPAMDYWGQGTLVTVSSHHHHHH , thanks.
[reply] < 3.5 RU

[ask] SPR response lookup needed for AS170036 VL1VH1-VHS57H (scFv) scFv: QSALTQPRSVSGSPGQSVTISCAGTSSDVGSENYVSWYQQHPGKAPKLMIYQVNKRASGVPDRFSGSKSGNTASLTISGLQAEDEADYYCASYRSSDHNIVFGGGTKLTVLGGGGSGGGGSGGGGSEVQLVESGGGLVQPGGSLRLSCAASGFTFSSYAMSWVRQAPGKGLEWVSTINSGTGHPYYADSVKGRFTISRDNSKNTLYLQMNSLRAEDTAVYYCAKNFFDGSWFLGPPAMDYWGQGTLVTVSSHHHHHH , thanks.
[reply] < 3.5 RU
